Origin of values: PubChem BioAssay (NCATS)

Assay: AP1 Signaling Pathway (AID 357);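 also: ME-180 reporter cells stimulated with EGF at its EC50 level; % is scaled to controls: 0 for no effect and ±100 for the full control effect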
Conditions: ME-180 (cervical carcinoma) AP-1-bla reporter, EGF-induced, beta-lactamase ratio, 5 h; at 7.69 µM (top of the series) unless noted
Inconclusive results are not listed. Calls of active or inactive are those of the source. Calls follow the shape of the dose curve; as a rule, active = well fitted curve in either direction with a large enough effect (not every such curve was filed as active); inconclusive = small, poorly fitted or top-dose-only effect, or another doubt; inactive = flat fitted curve, though single readings scatter.
Quantity Measured: activity change, negative = inhibition

Item COc1ccc(C(=O)N2CCC3(CCCN(c4ccccn4)C3)CC2)cc1 has what recorded activity change, negative = inhibition?
-4.8% (inactive)

State the recorded activity change, negative = inhibition for this entry: COc1ccc(Oc2ncc3nc(-c4ccc(Cl)cc4)c(=O)n(C)c3n2)cc1
-22.1% (inactive)

Would you mind telling me what activity change, negative = inhibition value was observed for COCCn1c(=O)c(-c2cccc(C#N)c2)nc2cnc(Oc3ccc(OC)cc3)nc21 ?
-21.9% (inactive)

# activity change, negative = inhibition lookup, item CN(Cc1ccco1)c1ncncc1-c1ccccc1C(F)(F)F
13.8% (inactive)

So what's the measured activity change, negative = inhibition for this one? COc1ccccc1OC[C@H](O)COC(N)=O
-6.22% [at 17.2 µM] (inactive)

Find the recorded activity change, negative = inhibition belonging to CCNc1ncc2nc(-c3cccc(C#N)c3)c(=O)n(CCC#N)c2n1 and report it.
12.8% (inactive)

What measured activity change, negative = inhibition goes with COCC(=O)N1CCC2(CCCN(C(=O)Nc3cccc(C#N)c3)C2)CC1 ?
-3.42% (inactive)

Would you kindly share the measured activity change, negative = inhibition for COc1ccc(C(=O)N2CCC[C@@]3(CCN(Cc4cc(C(F)(F)F)cc(C(F)(F)F)c4)C3)C2)cc1 ?
16.8% (inactive)

Tell me the measured activity change, negative = inhibition of N#Cc1cccc(-c2nc(Nc3ccncc3)c3ccccc3n2)c1 , please.
-0.676% (inactive)

What value of measured activity change, negative = inhibition is listed for COc1ccc(C(=O)N2CCC3(CCN(C(=O)Nc4cccc(F)c4)CC3)CC2)cc1 ?
-28.3% (inactive)
